- Assayed Target: Single-stranded DNA cytosine deaminase (Homo sapiens) (UniProt Q9GZX7)
- Sequence (Q9GZX7 whole entry, looked up): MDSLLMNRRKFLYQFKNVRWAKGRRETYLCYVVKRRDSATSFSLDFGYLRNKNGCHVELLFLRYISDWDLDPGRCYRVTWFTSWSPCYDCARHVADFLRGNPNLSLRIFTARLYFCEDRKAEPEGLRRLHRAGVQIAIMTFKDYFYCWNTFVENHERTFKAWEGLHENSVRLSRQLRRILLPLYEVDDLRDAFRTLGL
- Assay Procedure: Confirmatory qHTS assay for inhibitors of Activation Induced Cytidine Deaminase (AID): AID signals
- Experimental Context: recombinant AID, FRET deamination/UDG coupled fluorescence, 4 h; series mostly up to 115 µM
Screen size: about 1,200 compounds; about 30 (2%) were called active. About 23% were inconclusive and are not listed. Calls come from the whole dose curve; as a rule, active = well fitted inhibition curve with a large enough effect; inconclusive = small, poorly fitted or top-dose-only effect; inactive = flat fitted curve, though single readings scatter. Only a selection was taken, and actives are over-represented in it overall.
Classes used: active, inactive

>  <Compound>
CC(=O)[C@]1(O)Cc2c(O)c3c(c(O)c2[C@@H](O[C@H]2C[C@H](N)[C@H](O)[C@H](C)O2)C1)C(=O)c1ccccc1C3=O

>  <Assayed Target>
Single-stranded DNA cytosine deaminase (Homo sapiens) (UniProt Q9GZX7)

>  <Classification>
active

$$$$
>  <Compound>
Cc1ccc(C)c(N2CCN(C(=O)c3cc(S(=O)(=O)N4CCC(C)CC4)cn3C)CC2)c1

>  <Assayed Target>
Single-stranded DNA cytosine deaminase (Homo sapiens) (UniProt Q9GZX7)

>  <Classification>
inactive

$$$$
>  <Compound>
CN(c1ncnc2onc(-c3cccc(Cl)c3)c12)C1CCCCC1

>  <Assayed Target>
Single-stranded DNA cytosine deaminase (Homo sapiens) (UniProt Q9GZX7)

>  <Classification>
inactive

$$$$
>  <Compound>
Cc1cccc(N2CCN(C(=O)C3CCCN(C(=O)c4cc5sccc5n4C)C3)CC2)c1C (stereo not given)

>  <Assayed Target>
Single-stranded DNA cytosine deaminase (Homo sapiens) (UniProt Q9GZX7)

>  <Classification>
inactive

$$$$
>  <Compound>
O=C(NCCn1cc(SCc2ccc(C(F)(F)F)cc2)c2ccccc21)c1cccs1

>  <Assayed Target>
Single-stranded DNA cytosine deaminase (Homo sapiens) (UniProt Q9GZX7)

>  <Classification>
inactive

$$$$
>  <Compound>
CCOc1ccc(-c2nn(-c3ccccc3)cc2C2NC(=O)NC(C)=C2C(=O)OC(C)C)cc1 (stereo not given)

>  <Assayed Target>
Single-stranded DNA cytosine deaminase (Homo sapiens) (UniProt Q9GZX7)

>  <Classification>
inactive

$$$$
>  <Compound>
O=C(NCCc1ccc(Cl)cc1)c1ccc2c(c1)N(Cc1ccc(Cl)cc1)C(=O)CS2

>  <Assayed Target>
Single-stranded DNA cytosine deaminase (Homo sapiens) (UniProt Q9GZX7)

>  <Classification>
inactive

$$$$
>  <Compound>
CCc1ccc(OCC(=O)N(Cc2ccc(Cl)cc2)C2CCS(=O)(=O)C2)cc1 (stereo not given)

>  <Assayed Target>
Single-stranded DNA cytosine deaminase (Homo sapiens) (UniProt Q9GZX7)

>  <Classification>
inactive

$$$$
>  <Compound>
COc1ccc(C(C)=O)cc1CSc1nc(NCCc2ccccc2)c2ccccc2n1

>  <Assayed Target>
Single-stranded DNA cytosine deaminase (Homo sapiens) (UniProt Q9GZX7)

>  <Classification>
inactive

$$$$
>  <Compound>
Cc1ccc(Cc2c(C)nc3nc(SCC(=O)NC(C)c4ccccc4)nn3c2C)cc1 (stereo not given)

>  <Assayed Target>
Single-stranded DNA cytosine deaminase (Homo sapiens) (UniProt Q9GZX7)

>  <Classification>
inactive

$$$$
>  <Compound>
Cc1ccc2nc(Cl)c3cc(C(=O)N4CCCCC4C)sc3c2c1 (stereo not given)

>  <Assayed Target>
Single-stranded DNA cytosine deaminase (Homo sapiens) (UniProt Q9GZX7)

>  <Classification>
inactive

$$$$
>  <Compound>
Cc1cc2c(cc3c(SCc4cccc(Cl)c4)nnc(C)n32)o1

>  <Assayed Target>
Single-stranded DNA cytosine deaminase (Homo sapiens) (UniProt Q9GZX7)

>  <Classification>
inactive

$$$$
>  <Compound>
Cc1cccc(C)c1NC(=O)CS(=O)(=O)c1nc(-c2ccc(Cl)cc2)cn1-c1ccccc1

>  <Assayed Target>
Single-stranded DNA cytosine deaminase (Homo sapiens) (UniProt Q9GZX7)

>  <Classification>
inactive

$$$$
>  <Compound>
O=C1C(SCCO)=C(SCCO)C(=O)c2ccccc21

>  <Assayed Target>
Single-stranded DNA cytosine deaminase (Homo sapiens) (UniProt Q9GZX7)

>  <Classification>
active

$$$$
>  <Compound>
CC(=O)c1ccc(NC(=O)C2CCN(c3nnc(C)c4c(C)n(-c5ccccc5)nc34)CC2)cc1

>  <Assayed Target>
Single-stranded DNA cytosine deaminase (Homo sapiens) (UniProt Q9GZX7)

>  <Classification>
inactive

$$$$
>  <Compound>
Cc1cc(C)c(NC(=O)CSc2ncc(S(=O)(=O)c3ccc(C(C)(C)C)cc3)c(=O)[nH]2)c(C)c1

>  <Assayed Target>
Single-stranded DNA cytosine deaminase (Homo sapiens) (UniProt Q9GZX7)

>  <Classification>
inactive

$$$$
>  <Compound>
C=Cc1ccc(CSc2nc(-c3ccc(OC)cc3)nc3c2Cc2c(CO)cnc(C)c2O3)cc1

>  <Assayed Target>
Single-stranded DNA cytosine deaminase (Homo sapiens) (UniProt Q9GZX7)

>  <Classification>
inactive

$$$$
>  <Compound>
Cc1ccc(C2=NN(CC(=O)NCCCN(CC(C)C)CC(C)C)C(=O)CC2)cc1

>  <Assayed Target>
Single-stranded DNA cytosine deaminase (Homo sapiens) (UniProt Q9GZX7)

>  <Classification>
inactive

$$$$
>  <Compound>
Cc1nc2c(-c3ccccc3)c(C)nn2c(C)c1CCC(=O)N1CCN(c2ccccc2)CC1

>  <Assayed Target>
Single-stranded DNA cytosine deaminase (Homo sapiens) (UniProt Q9GZX7)

>  <Classification>
inactive

$$$$
>  <Compound>
COc1ccc(CN(Cc2ccco2)C(=O)COc2ccc(Cl)cc2C)cc1

>  <Assayed Target>
Single-stranded DNA cytosine deaminase (Homo sapiens) (UniProt Q9GZX7)

>  <Classification>
inactive

$$$$
